The values you see were collected from patent US11780849B2.

target: ENPP-1 ECD (Homo sapiens (Human), UniProt P22413); assay: Assay 2: inhibition of ENPP1 hydrolysis of 2′,3′-cGAMP (AMP-Glo, […] enzyme); conditions: read-out: Assay 2 (KI); inhibition of ENPP1 hydrolysis of 2′,3′-cGAMP; no unit in Table 18 (Table 17 legend for this assay uses nM)
Sequence (P22413 98-925): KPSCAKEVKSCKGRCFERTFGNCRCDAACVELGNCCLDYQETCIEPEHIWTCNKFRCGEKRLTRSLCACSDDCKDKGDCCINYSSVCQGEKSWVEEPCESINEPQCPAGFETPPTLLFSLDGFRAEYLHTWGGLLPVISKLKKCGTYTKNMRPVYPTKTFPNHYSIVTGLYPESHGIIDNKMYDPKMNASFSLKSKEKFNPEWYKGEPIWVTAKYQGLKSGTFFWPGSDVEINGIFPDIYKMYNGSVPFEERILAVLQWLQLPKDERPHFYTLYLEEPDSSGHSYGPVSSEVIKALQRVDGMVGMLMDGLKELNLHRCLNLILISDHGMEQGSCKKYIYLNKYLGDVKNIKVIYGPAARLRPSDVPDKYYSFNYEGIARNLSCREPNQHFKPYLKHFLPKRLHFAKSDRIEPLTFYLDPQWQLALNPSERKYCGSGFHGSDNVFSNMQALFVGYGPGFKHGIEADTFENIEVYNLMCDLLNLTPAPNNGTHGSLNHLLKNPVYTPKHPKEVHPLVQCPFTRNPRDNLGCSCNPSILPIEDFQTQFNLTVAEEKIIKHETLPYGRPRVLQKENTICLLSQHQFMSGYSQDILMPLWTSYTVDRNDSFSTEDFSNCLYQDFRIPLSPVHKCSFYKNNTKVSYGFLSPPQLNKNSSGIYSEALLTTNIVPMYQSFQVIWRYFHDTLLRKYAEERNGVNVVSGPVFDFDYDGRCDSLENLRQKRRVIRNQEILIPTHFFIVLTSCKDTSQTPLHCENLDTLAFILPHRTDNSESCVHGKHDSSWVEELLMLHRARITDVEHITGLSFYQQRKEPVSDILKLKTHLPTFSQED
Parameter class (string): assigned from measured Ki. Ranges: class A (below 0.09 nM), class B (0.09 nM to below 9 nM), class C (9 nM or more)

| COMPOUND | CLASS_LABEL |
| --- | --- |
| COc1cccc2c(N3CCC(C[S@@](C)(=N)=O)CC3)ncnc12 [Compound 146a] | class B |
| COc1cccc2c(N3CC[C@H](C[S@](C)(=N)=O)C3)ncnc12 [Compound 238b] | class C |
| COc1cccc2c(N3CC[C@@H](C[S@@](C)(=N)=O)C3)ncnc12 [Compound 239b] | class C |
| COc1cc2nccc(N3CCC4(CC3)CCN([S@](C)(=N)=O)C4)c2cc1OC [Compound 208b] | class A |
| COc1cc2ncnc(N3CCC4(CC3)CCN([S@](=N)(=O)C3CC3)C4)c2cc1OC [Compound 160a] | class A |
| COc1cc2nccc(OC[C@@H]3CCN([S@@](C)(=N)=O)C3)c2cc1F [Compound 229a] | class C |
| COc1cccc2c(N3CCC(O)(C[S@](C)(=N)=O)CC3)ncnc12 [Compound 185b] | class B |
| COc1cc2ncnc(-c3ccc4c(c3)CN([S@@](C)(=N)=O)CC4)c2cc1OC [Compound 37a] | class C |
| COc1cc2nccc(OCc3cccc([S@@](C)(=N)=O)c3)c2cc1OC [Compound 175b] | class B |
| COc1ccc2c(N3CCC4(CC3)CCN([S@@](C)(=N)=O)C4)ccnc2c1 [Compound 55b] | class B |
| COc1cc2nccc(N3CC4(CC(C[S@](C)(=N)=O)C4)C3)c2cc1F [Compound 184b] | class B |
| COc1cc2ncnc(N3CCC4(CC3)CCN([S@@](=N)(=O)C3CC3)C4)c2cc1OC [Compound 160b] | class B |
| COc1ccc2c(OCc3cccc([S@](C)(=N)=O)c3)ccnc2c1 [Compound 133b] | class C |
| COc1cc(F)cc2c(N3CCC(CS(C)(=N)=O)CC3)ncnc12 (stereo not shown) [Compound 183b] | class C |
| COc1cc2nccc(NCc3cccc(S(C)(=N)=O)c3)c2cc1F (stereo not shown) [Compound 192] | class B |
| COc1ccc2c(Oc3ccc([S@](C)(=N)=O)cc3)ccnc2c1 [Compound 80b] | class C |
| COc1cc2nccc(N3CCC4(CC3)CCN([S@](C)(=N)=O)C4)c2cc1Cl [Compound 156b] | class B |
| COc1cccc2c(N3CCC(O)(C[S@](C)(=N)=O)CC3)c(C#N)cnc12 [Compound 198b] | class B |
| COc1cccc2c(N3CCC(O)(C[S@](=N)(=O)C4CC4)CC3)ncnc12 [Compound 193b] | class A |
| COc1cc2nccc(OCc3cccc([S@](C)(=N)=O)c3)c2cc1F [Compound 169b] | class A |
| COc1ccc2c(Oc3ccc([S@](=N)(=O)C4CC4)cc3)ccnc2c1 [Compound 60b] | class C |
| COc1ccc2c(-c3ccc4c(c3)CN([S@](C)(=N)=O)CC4)ccnc2c1 [Compound 52a] | class C |
| COc1cc2nccc(OCc3cccc([S@](C)(=N)=O)c3)c2cc1OC [Compound 175a] | class A |
| COc1cc2nncc(N3CCC4(CC3)CCN([S@](C)(=N)=O)C4)c2cc1OC [Compound 211a] | class A |
| COc1cc2nccc(Oc3ccc([S@@](=N)(=O)C4CC4)cc3)c2cc1F [Compound 120a] | class A |
| COc1cc2ncnc(N3CCC(CN[S@@](C)(=N)=O)CC3)c2cc1OC [Compound 94a] | class B |
| COc1ccc2c(Oc3ccc([S@@](C)(=N)=O)cc3)ccnc2c1 [Compound 80a] | class B |
| COc1cccc2c(N3CCC(O)(C[S@@](=N)(=O)C4CC4)CC3)ncnc12 [Compound 193a] | class C |
| COc1ccc2c(OCc3cc(F)cc([S@@](C)(=N)=O)c3)ccnc2c1 [Compound 177a] | class C |
| CC[S@@](=N)(=O)CC1(O)CCN(c2ncnc3c(OC)cccc23)CC1 [Compound 195a] | class A |
| COc1cc2nccc(-c3ccc4c(c3)CN([S@@](C)(=N)=O)CC4)c2cc1OC [Compound 161a] | class A |
| COc1cccc2c(N3CCC(C[S@](C)(=N)=O)CC3)c(C#N)cnc12 [Compound 179b] | class A |
